Test system: Echinochloa crus-galli (ECHCG)
EXPERIMENT_NOTES: Post-emergence Test, Echinochloa crus-galli (ECHCG)
Format: in vivo
Parameters: key: 5=81-100%, 4=61-80%, 3=41-60%, 2=21-40%, 1=0-20% damage
EXPERIMENTAL_PARAMETERS: 1000 g/ha, evaluated after 13 days
Experimental: Seeds of a variety of test species are sown in standard soil in pots (Setaria faberi (SETFA), Echinochloa crus-galli (ECHCG), Zea mays (ZEAMX), Ipomoea hederacea (IPOHE), Amaranthus palmeri (AMAPA), Amaranthus retoflexus (AMARE)). […] After 13 days the test is evaluated for the percentage damage caused to the plant. […]
METRIC: percentage damage caused to the plant, ECHCG (five-point scale)

I would be grateful if you could share the reported percentage damage caused to the plant, ECHCG (five-point scale) for CCn1c(Cn2nc(C)cc2OC(C)(C)C)cc(=O)c(C(=O)O)c1-c1ccc(Cl)c(Cl)c1 . 1 (1=0-20%)

Which value of percentage damage caused to the plant, ECHCG (five-point scale) has been reported for CCn1c(Cn2cc3ccccc3n2)cc(=O)c(C(=O)O)c1-c1ccc(Cl)c(Cl)c1 in the records? 1 (1=0-20%)

Given the compound CCn1c(Cn2cc(C(=O)OC)cn2)cc(=O)c(C(=O)O)c1-c1ccc(Cl)c(Cl)c1 , what is its reported percentage damage caused to the plant, ECHCG (five-point scale)? 0

Which percentage damage caused to the plant, ECHCG (five-point scale) is listed for CCn1c(Cn2cnc(Cl)n2)cc(=O)c(C(=O)O)c1-c1ccc(Cl)c(Cl)c1 ? 1 (1=0-20%)

# percentage damage caused to the plant, ECHCG (five-point scale) lookup, item CCn1c(Cn2ccc(I)n2)cc(=O)c(C(=O)O)c1-c1ccc(Cl)c(Cl)c1 4 (4=61-80%)

I am curious: what percentage damage caused to the plant, ECHCG (five-point scale) value has been reported for CCn1c(Cn2cc(Cl)c(C3CC3)n2)cc(=O)c(C(=O)O)c1-c1ccc(Cl)c(Cl)c1 ? 1 (1=0-20%)

What value of percentage damage caused to the plant, ECHCG (five-point scale) has been reported for the following compound? CCn1c(Cn2ccc(Cl)n2)cc(=O)c(C(=O)O)c1-c1ccc(C#N)c(Cl)c1 4 (4=61-80%)

Recorded percentage damage caused to the plant, ECHCG (five-point scale) of CCn1c(Cn2cncn2)cc(=O)c(C(=O)O)c1-c1ccc(Cl)c(Cl)c1 , please. 2 (2=21-40%)

Recorded percentage damage caused to the plant, ECHCG (five-point scale) for CCn1c(Cn2ccc(C(F)(F)F)n2)cc(=O)c(C(=O)O)c1-c1ccc(S(C)(=O)=O)c(Cl)c1 , please? 1 (1=0-20%)

Given the entry CCn1c(Cn2ccc(Cl)n2)cc(=O)c(C(=O)O)c1-c1ccc(S(C)(=O)=O)c(Cl)c1 , report its measured percentage damage caused to the plant, ECHCG (five-point scale). 0

What does the data say about its percentage damage caused to the plant, ECHCG (five-point scale)? Entry: CCOC(=O)c1c(-c2ccc(Cl)c(Cl)c2)n(CC)c(Cn2cncn2)cc1=O 2 (2=21-40%)

Could you share which percentage damage caused to the plant, ECHCG (five-point scale) value was measured for CCn1c(Cn2cc(Cl)cn2)cc(=O)c(C(=O)O)c1-c1ccc(Cl)c(Cl)c1 ? 4 (4=61-80%)

Give the measured percentage damage caused to the plant, ECHCG (five-point scale) of CCn1c(Cn2cc(C(C)=O)c(C)n2)cc(=O)c(C(=O)O)c1-c1ccc(Cl)c(Cl)c1 . 2 (2=21-40%)

Endpoint output: percentage damage caused to the plant, ECHCG (five-point scale) of CCn1c(Cn2ccnn2)cc(=O)c(C(=O)O)c1-c1ccc(Cl)c(Cl)c1 . Value? 1 (1=0-20%)

Endpoint output: percentage damage caused to the plant, ECHCG (five-point scale) of Cn1c(Cn2ccc(C(F)(F)F)n2)cc(=O)c(C(=O)O)c1-c1ccc(Cl)c(Cl)c1 . Value? 4 (4=61-80%)

Fill blank: measured percentage damage caused to the plant, ECHCG (five-point scale) of the compound CCn1c(Cn2cnc(Cl)c2)cc(=O)c(C(=O)O)c1-c1ccc(Cl)c(Cl)c1 is ____. 0
